molecular target: T1, human CLDN18.2 (human); assay: flow cytometry, CLDN18.2-overexpressing BxPC-3 cells
T1 construct: The construct in the CLDN18.2-overexpressing BxPC-3 and NCI-N87 lines is not described; KATOIII and NUGC-4 express CLDN18.2 naturally; All are written here as this one molecule; also called Claudin 18.2; tight junction protein 18.2
T1 sequence (chain, as listed by the source limits assumed): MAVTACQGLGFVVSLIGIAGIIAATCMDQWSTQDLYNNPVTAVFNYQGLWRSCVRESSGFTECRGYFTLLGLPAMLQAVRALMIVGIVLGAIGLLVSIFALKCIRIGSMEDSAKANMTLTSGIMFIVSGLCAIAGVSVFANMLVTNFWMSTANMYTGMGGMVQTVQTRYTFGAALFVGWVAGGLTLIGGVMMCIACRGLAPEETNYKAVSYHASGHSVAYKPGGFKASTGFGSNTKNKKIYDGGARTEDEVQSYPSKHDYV
MEASURE: pEC50
Remember, pEC50 is on a log scale: it is -log10 of the molar concentration.

Task: Please list pEC50 recorded for the binder humanized antibody hz28G3-1.3 (antibody, human IgG1, kappa, V domains shown, Naked humanized anti-CLDN18.2 antibody, human IgG1 / kappa, expressed in CHO cells) VH: QVQLVQSGAEVKKPGASVKVSCKTSGYSFTDYLMLWVRQAHGQSLEWMGNINPYYGRTTYALKFKGRVTMTVDRSTSTVYMELSSLRSEDTAVYYCARDGYSLRNAMDYWGQGTLVTVSS VL: DIVMTQSPDSLAVSLGERATINCKSSQSLFNSGNQKNYLAWYQQKPGQPPKLLIYGASTRESGVPDRFSGSGSGTDFTLTISSLQAEDVAVYYCQNAHSYPYTFGQGTKVEIKR
Result: 8.47

Task: Consider the binder hz28G3-1.3-DDDXd (with DAR of 7.6) (antibody, human IgG1, kappa, DAR 7.6, V domains shown, linker-payload MC-GGFG-DDDXd (compound H) conjugated to cysteines of the reduced inter-chain disulfide bonds; positions not given; linker-payload MC-GGFG-DDDXd (compound H) conjugated to cysteines of the reduced inter-chain disulfide bonds; positions not given; DAR 7.6 for the whole molecule, also called anti-CLDN18.2 antibody-drug conjugate) VH: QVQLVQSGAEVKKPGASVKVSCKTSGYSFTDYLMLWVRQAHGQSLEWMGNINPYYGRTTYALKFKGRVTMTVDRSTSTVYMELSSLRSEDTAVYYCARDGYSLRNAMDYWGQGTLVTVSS VL: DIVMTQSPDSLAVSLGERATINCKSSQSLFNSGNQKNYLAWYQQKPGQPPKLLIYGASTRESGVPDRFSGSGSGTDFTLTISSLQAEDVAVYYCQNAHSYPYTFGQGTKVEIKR and give its recorded pEC50.
Result: 9.02

Continuing:
Task: Please list pEC50 recorded for the binder hz28G3-1.1-DDDXd (with DAR of 7.4) (antibody, human IgG1, kappa, DAR 7.4, V domains shown, linker-payload MC-GGFG-DDDXd (compound H) conjugated to cysteines of the reduced inter-chain disulfide bonds; positions not given; linker-payload MC-GGFG-DDDXd (compound H) conjugated to cysteines of the reduced inter-chain disulfide bonds; positions not given; DAR 7.4 for the whole molecule, also called anti-CLDN18.2 antibody-drug conjugate) VH: QVQLVQSGAEVKKPGASVKVSCKTSGYSFTDYLMLWVRQAPGQGLEWMGNINPYYGRTTYALKFKGRVTMTVDRSTSTVYMELSSLRSEDTAVYYCARDGYSLRNAMDYWGQGTLVTVSS VL: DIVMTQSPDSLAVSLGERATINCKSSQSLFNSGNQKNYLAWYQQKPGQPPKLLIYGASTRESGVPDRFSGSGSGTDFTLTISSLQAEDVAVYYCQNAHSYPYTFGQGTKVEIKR
Result: 8.95

Task: Specify measured pEC50 for humanized antibody hz28G3-1.1 (antibody, human IgG1, kappa, V domains shown, Naked humanized anti-CLDN18.2 antibody, human IgG1 / kappa, expressed in CHO cells) VH: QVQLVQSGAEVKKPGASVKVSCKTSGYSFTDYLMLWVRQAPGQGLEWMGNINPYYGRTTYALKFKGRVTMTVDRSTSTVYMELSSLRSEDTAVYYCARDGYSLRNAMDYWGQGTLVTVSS VL: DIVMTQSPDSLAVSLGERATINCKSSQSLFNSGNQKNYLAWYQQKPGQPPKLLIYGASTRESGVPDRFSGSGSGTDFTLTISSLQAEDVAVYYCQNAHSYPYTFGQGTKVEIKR .
Result: 8.58

These data points were gathered from patent EP4628104A1.
